Recorded IC50 values for a group of compounds are listed next.
Target: p38 MAPKα isoform (MAPK14: Invitrogen) (Homo sapiens)
Assay: p38 MAPKα enzyme inhibition assay (FRET, Z-LYTE, via MAPKAP-K2 activation)
Settings: 2 hr pre-incubation, ATP 10.0 μM; read-out: Enzyme Inhibition IC50 p38α
Answer with the number, then the unit.

Sample answers from the record:
Task: # query: IC50 of entry `COCC(=O)Nc1cc(Oc2ccc(NC(=O)Nc3cc(C(C)(C)C)nn3-c3ccc(S(C)(=O)=O)cc3)c3ccccc23)ncn1`
Result: 9.5 nM

Task: Which IC50 value belongs to `COCC(=O)Nc1cc(Oc2ccc(NC(=O)Nc3cc(C(C)(C)C)nn3-c3ccc(O)cc3)c3ccccc23)ccn1` ?
Result: 1.7 nM

Task: Any idea what IC50 was measured for `COCC(=O)Nc1cc(Oc2ccc(NC(=O)Nc3cc(C(C)(C)C)nn3-c3ccc(C(=O)OC)cc3)c3ccccc23)ccn1` ?
Result: 8.3 nM

The record that follows has no IC50 shown yet.
Task: Sample `CNC(=O)Nc1cc(COc2ccc(NC(=O)Nc3cc(C(C)(C)C)nn3-c3ccc(OC)cc3)c(C)c2C)ccn1` — what was its IC50?
Result: 13 nM

====

System: Differentiated U937 cells
Experiment: MTT assay: cell viability on exposure to test compounds
Format: cell-based, human
Details: percentage loss of cell viability vs vehicle; 1 μg/mL, 24 h, 10% FCS
Below: a set of entries, each annotated with reported MTT Assay (Viability) 24 h d-U937.
Respond with the bare value in %.

In the examples that follow, each entry is paired with its recorded MTT Assay (Viability) 24 h d-U937.
Task: Item `COc1ccc(-n2nc(C(C)(C)C)cc2NC(=O)Nc2ccc(Oc3ccnc(NC(=O)NC4CC4)c3)c3ccccc23)cc1` has what recorded MTT Assay (Viability) 24 h d-U937?
Result: −50.1

Task: Quick check: MTT Assay (Viability) 24 h d-U937 of `COCC(=O)Nc1cc(Oc2ccc(NC(=O)Nc3cc(C(C)(C)C)nn3-c3ccc(O)c(Cl)c3)c3ccccc23)ccn1` ?
Result: −48.8

Task: Recorded MTT Assay (Viability) 24 h d-U937 of `COCC(=O)Nc1cc(COc2ccc(NC(=O)Nc3cc(C(C)(C)C)nn3-c3ccc(C)cc3)c(C)c2C)ccn1` , please.
Result: 12.0

Okay, next one:
Task: // returns reported MTT Assay (Viability) 24 h d-U937 for input `COCC(=O)Nc1cc(Oc2ccc(NC(=O)Nc3cc(C(F)(F)F)nn3-c3ccc(C)cc3)c3ccccc23)ccn1`
Result: −5.7

====

Target: p38 MAPKα isoform (MAPK14: Invitrogen) (Homo sapiens, UniProt Q16539)
Sequence (Q16539 whole entry, canonical isoform): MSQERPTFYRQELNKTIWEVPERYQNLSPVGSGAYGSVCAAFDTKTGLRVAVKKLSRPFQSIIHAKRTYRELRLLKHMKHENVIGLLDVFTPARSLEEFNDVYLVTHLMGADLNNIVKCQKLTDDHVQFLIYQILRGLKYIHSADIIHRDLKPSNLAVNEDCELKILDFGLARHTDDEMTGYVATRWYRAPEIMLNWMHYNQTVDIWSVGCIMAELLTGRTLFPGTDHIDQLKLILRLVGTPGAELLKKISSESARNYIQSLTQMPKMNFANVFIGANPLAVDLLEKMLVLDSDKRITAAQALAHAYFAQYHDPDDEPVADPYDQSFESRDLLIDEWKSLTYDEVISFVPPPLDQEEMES
Experiment: p38 MAPKα enzyme inhibition assay (FRET, Z-LYTE, via MAPKAP-K2 activation)
Details: 2 hr pre-incubation, ATP 10.0 μM; read-out: Enzyme Inhibition IC50 p38α
# Lookup of reported pIC50 keyed by entry
For clarity, pIC50 is expressed as the negative log10 of concentration in mol/L.

Example entries and their recorded answers appear below.
Task: Could you share which pIC50 value was measured for COc1ccc(-n2nc(C(C)(C)C)cc2NC(=O)Nc2ccc(Oc3ccnc(NC(=O)N(C)C)c3)c3ccccc23)cc1 [Example 7] ?
Result: 8.39

Task: Fill in: pIC50 of COCC(=O)Nc1cc(Oc2ccc(NC(=O)Nc3cc(C(C)(C)C)nn3-c3ccc(OC(F)(F)F)cc3)c3ccccc23)ccn1 [Example 41] is ___
Result: 7.58

Task: For CNC(=O)Nc1cc(Oc2ccc(NC(=O)Nc3cc(C(C)(C)C)nn3-c3ccc(OC)cc3)c3ccccc23)ccn1 [Example 38] , what is its reported pIC50?
Result: 7.80

Task: For COc1ccc(-n2nc(C(C)(C)C)cc2NC(=O)Nc2ccc(Oc3ccnc(NC(=O)N4CCOCC4)c3)c3ccccc23)cc1 [Example 9] , what is its reported pIC50?
Result: 8.57

Continuing:
Task: # input compound: CSc1ccc(-n2nc(C(C)(C)C)cc2NC(=O)Nc2ccc(Oc3ccnc(NC(=O)N4CCCC4)c3)c3ccccc23)cc1 [Example 14] ; wanted: its pIC50
Result: 7.77

Task: So what's the measured pIC50 for this one? COc1ccc(-n2nc(C(C)(C)C)cc2NC(=O)Nc2ccc(Oc3ccnc(NC(=O)CO)c3)c3ccccc23)cc1 [Example 4]
Result: 8.34

Task: Entry COCC(=O)Nc1cc(Oc2ccc(NC(=O)Nc3cc(C4CCOCC4)nn3-c3ccc(C)cc3)c3ccccc23)ccn1 [Example 28] : reported pIC50 = ?
Result: 8.85

Task: pIC50 for COCC(=O)Nc1cc(COc2ccc(NC(=O)Nc3cc(C(C)(C)C)nn3-c3ccc(OC)nc3)c(C)c2C)ccn1 [Example 61] ?
Result: 7.89
